experiment: In Vitro Microsome Stability Assay (mouse); assay type: in vitro ADME; conditions: mouse liver microsomes, 30 min w/ NADPH
attribute_measured: Liver Microsome Stability-% Left after 30 min w/ NADPH (%) Mouse
Please respond with the number in % and leave the unit unwritten.

Exercise: Fill in: Liver Microsome Stability-% Left after 30 min w/ NADPH (%) Mouse of C[C@H]1CN(S(=O)(=O)c2ccc(N(C)C)cc2)CCCNCCCN(S(=O)(=O)N2CCc3cc(Cl)ccc3C2)C1 is ___
Key: 7.39

Exercise: Fill in: Liver Microsome Stability-% Left after 30 min w/ NADPH (%) Mouse of CC1c2ccccc2CCN1S(=O)(=O)N1CCCN(CC2CCCCC2)CCCN(S(=O)(=O)c2ccc(N(C)C)cc2)C[C@H](C)C1 (stereo partly shown) is ___
Key: 3.65

Exercise: Fill in: Liver Microsome Stability-% Left after 30 min w/ NADPH (%) Mouse of C[C@H]1CN(S(=O)(=O)c2ccc(N(C)C)cc2)CCCN(CCC2CC2)CCCN(S(=O)(=O)N2CCc3cc(Cl)ccc3C2)C1 is ___
Key: 36.4

Exercise: Fill in: Liver Microsome Stability-% Left after 30 min w/ NADPH (%) Mouse of CC(C)CCN1CCCN(S(=O)(=O)c2ccc(N(C)C)cc2)C[C@H](C)CN(S(=O)(=O)N2CCc3cc(Cl)ccc3C2)CCC1 is ___
Key: 6.13

Exercise: Fill in: Liver Microsome Stability-% Left after 30 min w/ NADPH (%) Mouse of Cc1cccc2c1CCN(S(=O)(=O)N1CCCN(CC3CCCCC3)CCCN(S(=O)(=O)c3ccc(N(C)C)cc3)C[C@H](C)C1)C2 is ___
Key: 26.4

Exercise: Fill in: Liver Microsome Stability-% Left after 30 min w/ NADPH (%) Mouse of C[C@H]1CN(S(=O)(=O)c2ccc(C(=O)N(C)C)cc2)CCCN(CC2CCCCC2)CCCN(S(=O)(=O)N2CCc3cc(Cl)ccc3C2)C1 is ___
Key: 0.5

Exercise: Fill in: Liver Microsome Stability-% Left after 30 min w/ NADPH (%) Mouse of COc1ccc(N2CCN(S(=O)(=O)N3CCCN(CC4CCCCC4)CCCN(S(=O)(=O)c4ccc(N(C)C)cc4)C[C@H](C)C3)CC2)cc1 is ___
Key: 23.7
